Experiment: Tanguay_ZF_120hpf_DP24: Oregon State University Tanguay Lab 24 Hour Post-fertilization zebrafish Assay for Delayed Development (AID 2284390)
Active and inactive are the calls of the source. How the source made its calls: active means hit-call score of the fitted dose curve at least 0.9, where 1 is the maximum; inactive means score below 0.9.
Possible outcomes: 1.0 for active, 0.0 for inactive

* O=C(O)C=CC(F)(C(F)(F)F)C(F)(F)F | 0.0
* O=C(O)C(F)(F)OC(F)(F)C(F)(F)OC(F)(F)C(=O)O | 0.0
* NC(=O)C(F)(F)C(F)(F)F | 0.0
* CC(O)C(F)(F)C(F)(F)F (configuration not stated) | 0.0
* O=C(O)C(F)(OC(F)(F)C(F)(F)C(F)(F)F)C(F)(F)F (configuration not stated) | 0.0
* OCC(F)(F)OC(F)(F)C(F)(F)OC(F)(F)CO | 0.0
* OCC(F)(F)OC(F)(F)C(F)(F)OC(F)(F)C(F)(F)OC(F)(F)CO | 1.0

// data source = PubChem BioAssay (EPA / NIEHS)
